Test system: fibro-sarcomas induced by methyl cholanthrene, tumour cells in culture
test_protocol: Tumour culture: inhibition of multiplication of methyl cholanthrene-induced fibro-sarcoma cells in vitro
Type: cell-based
applied_conditions: Rattus norvegicus, 72 h; 10^-6 molar; 72nd hour after sub-culture; read-out: percentage of diminution of the number of cells in comparison with the control
Outcome label depends on inhibition at 1 µM relative to 5%: at/above gives t, below gives f.

> print(dat)
                  smiles.data  group
 1   COc1cccc(OCC=NNC(=N)N)c1      f
 2    Cc1ccc(OCC=NNC(=N)N)cc1      f
 3   N=C(N)NN=CCOc1ccc(Br)cc1      f
 4  CC(C)c1ccccc1OCC=NNC(=N)N      t
 5   N=C(N)NN=CCOc1cccc(Cl)c1      f
 6      Cc1ccccc1OCC=NNC(=N)N      f
 7     N=C(N)NN=CCOc1ccccc1Cl      t
 8       N=C(N)NN=CCOc1ccccc1      t
 9   N=C(N)NN=CCOc1ccc(Cl)cc1      t
10    Cc1cccc(OCC=NNC(=N)N)c1      t
11     COc1ccccc1OCC=NNC(=N)N      f
12   COc1ccc(OCC=NNC(=N)N)cc1      f
